The measurements presented in this section are drawn from patent US20240216513A1.

Experiment: BTK FAC plasma stability assay, rat plasma
Assay type: in vitro ADME
Conditions: incubation to 24 h
Measure name: Plasma stability (h) rat

Molecule	Plasma stability (h) rat
CCCCCCCCCCCN(C(=O)CCCCCCCCCC(=O)O)C(CCC(=O)NCCOCCOCCOCCOCCOCCOCCOCCOCCOCCOCCOCCOCCC(=O)N1CCC(F)(C(=O)OC(C)(C)c2ccc(C(=O)Nc3cc(F)cc(-c4ncnc5[nH]c(-c6ccc(CCN7CCC8(CC7)CCN(C(=O)c7ccc(OC)c(N9CCC(=O)NC9=O)c7)CC8)cc6)cc45)c3C)c(F)c2)CC1)C(=O)O (stereo not drawn) [Example A15]	30 h
CCCCCCCCCCCN(C(=O)CCCCCCCCCC(=O)O)C(CCC(=O)NCCOCCOCCOCCOCCOCCOCCOCCOCCC(=O)NCC(=O)OC(C)(C)c1ccc(C(=O)Nc2cc(F)cc(-c3ncnc4[nH]c(-c5ccc(CCN6CCC7(CC6)CCN(C(=O)c6ccc(OC)c(N8CCC(=O)NC8=O)c6)CC7)cc5)cc34)c2C)c(F)c1)C(=O)O (stereo not drawn) [Example A8]	>48 h

Please turn your attention to the following entry.
Lookup: Given the entry CCCCCCCCCCCN(C(=O)CCCCCCCCCC(=O)O)C(CCC(=O)NCCOCCOCCOCCOCCOCCOCCOCCOCCOCCOCCOCCOCCC(=O)N[C@@H](C)CC(=O)OC(C)(C)c1ccc(C(=O)Nc2cc(F)cc(-c3ncnc4[nH]c(-c5ccc(CCN6CCC7(CC6)CCN(C(=O)c6ccc(OC)c(N8CCC(=O)NC8=O)c6)CC7)cc5)cc34)c2C)c(F)c1)C(=O)O (stereo partly drawn) [Example A20] , report its measured Plasma stability (h) rat.
Found: >48 h
